Test system: MCF7;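 note: secreted proteins added to cultured cells, EdU pulse at the end, nuclei found by Hoechst imaging, EdU status from nuclear versus surrounding ring intensity ratio, PBS as neutral control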
measurement protocol: percentage of EdU-negative (G0-arrested) nuclei per well, 72 h; higher = more G0 arrest
cond: protein concentration 0.3125 µM; reference: sequence is the full UniProt precursor, the tested protein was the secreted form or ectodomain
Overview of reported percentage of EdU-negative across a group of sequences:
readout label: percentage of EdU-negative

>  <macromolecule sequence>
MAPARAGFCPLLLLLLLGLWVAEIPVSAKPKGMTSSQWFKIQHMQPSPQACNSAMKNINKHTKRCKDLNTFLHEPFSSVAATCQTPKIACKNGDKNCHQSHGAVSLTMCKLTSGKHPNCRYKEKRQNKSYVVACKPPQKKDSQQFHLVPVHLDRVL [Q9H1E1]

>  <observed result>
26%

$$$$
>  <macromolecule sequence>
MFHVSFRYIFGLPPLILVLLPVASSDCDIEGKDGKQYESVLMVSIDQLLDSMKEIGSNCLNNEFNFFKRHICDANKEGMFLFRAARKLRQFLKMNSTGDFDLHLLKVSEGTTILLNCTGQVKGRKPAALGEAQPTKSLEENKSLKEQKKLNDLCFLKRLLQEIKTCWNKILMGTKEH

>  <observed result>
25.9%

$$$$
>  <macromolecule sequence>
MDSDETGFEHSGLWVSVLAGLLLGACQAHPIPDSSPLLQFGGQVRQRYLYTDDAQQTEAHLEIREDGTVGGAADQSPESLLQLKALKPGVIQILGVKTSRFLCQRPDGALYGSLHFDPEACSFRELLLEDGYNVYQSEAHGLPLHLPGNKSPHRDPAPRGPARFLPLPGLPPALPEPPGILAPQPPDVGSSDPLSMVGPSQGRSPSYAS [Q9NSA1]

>  <observed result>
23.9%

$$$$
>  <macromolecule sequence>
MTLLPGLLFLTWLHTCLAHHDPSLRGHPHSHGTPHCYSAEELPLGQAPPHLLARGAKWGQALPVALVSSLEAASHRGRHERPSATTQCPVLRPEEVLEADTHQRSISPWRYRVDTDEDRYPQKLAFAECLCRGCIDARTGRETAALNSVRLLQSLLVLRRRPCSRDGSGLPTPGAFAFHTEFIHVPVGCTCVLPRSV [Q9P0M4]

>  <observed result>
26.1%

$$$$
>  <macromolecule sequence>
MRIWWLLLAIEICTGNINSQDTCRQGHPGIPGNPGHNGLPGRDGRDGAKGDKGDAGEPGRPGSPGKDGTSGEKGERGADGKVEAKGIKGDQGSRGSPGKHGPKGLAGPMGEKGLRGETGPQGQKGNKGDVGPTGPEGPRGNIGPLGPTGLPGPMGPIGKPGPKGEAGPTGPQGEPGVRGIRGWKGDRGEKGKIGETLVLPKSAFTVGLTVLSKFPSSDMPIKFDKILYNEFNHYDTAAGKFTCHIAGVYYFTYHITVFSRNVQVSLVKNGVKILHTKDAYMSSEDQASGGIVLQLKLGDEVWLQVTGGERFNGLFADEDDDTTFTGFLLFSSP [P0C862]

>  <observed result>
30.1%

$$$$
>  <macromolecule sequence>
MKFTIVFAGLLGVFLAPALANYNINVNDDNNNAGSGQQSVSVNNEHNVANVDNNNGWDSWNSIWDYGNGFAATRLFQKKTCIVHKMNKEVMPSIQSLDALVKEKKLQGKGPGGPPPKGLMYSVNPNKVDDLSKFGKNIANMCRGIPTYMAEEMQEASLFFYSGTCYTTSVLWIVDISFCGDTVEN [Q9NS71]

>  <observed result>
25.4%

$$$$
>  <macromolecule sequence>
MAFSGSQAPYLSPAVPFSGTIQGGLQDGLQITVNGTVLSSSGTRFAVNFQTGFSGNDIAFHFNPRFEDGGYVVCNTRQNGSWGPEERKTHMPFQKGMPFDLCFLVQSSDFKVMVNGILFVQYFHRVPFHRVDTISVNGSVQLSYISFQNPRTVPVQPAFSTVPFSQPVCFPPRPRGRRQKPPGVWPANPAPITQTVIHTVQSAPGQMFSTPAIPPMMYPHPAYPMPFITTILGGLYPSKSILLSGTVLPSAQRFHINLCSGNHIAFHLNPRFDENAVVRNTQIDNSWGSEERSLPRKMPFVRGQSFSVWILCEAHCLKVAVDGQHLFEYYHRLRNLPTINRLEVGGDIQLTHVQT

>  <observed result>
26.3%

$$$$
>  <macromolecule sequence>
MSRLPVLLLLQLLVRPGLQAPMTQTTPLKTSWVNCSNMIDEIITHLKQPPLPLLDFNNLNGEDQDILMENNLRRPNLEAFNRAVKSLQNASAIESILKNLLPCLPLATAAPTRHPIHIKDGDWNEFRRKLTFYLKTLENAQAQQTTLSLAIF

>  <observed result>
23.6%

$$$$
